target: CDK13 (Homo sapiens, UniProt Q14004)
Sequence (Q14004 whole entry, species assumed): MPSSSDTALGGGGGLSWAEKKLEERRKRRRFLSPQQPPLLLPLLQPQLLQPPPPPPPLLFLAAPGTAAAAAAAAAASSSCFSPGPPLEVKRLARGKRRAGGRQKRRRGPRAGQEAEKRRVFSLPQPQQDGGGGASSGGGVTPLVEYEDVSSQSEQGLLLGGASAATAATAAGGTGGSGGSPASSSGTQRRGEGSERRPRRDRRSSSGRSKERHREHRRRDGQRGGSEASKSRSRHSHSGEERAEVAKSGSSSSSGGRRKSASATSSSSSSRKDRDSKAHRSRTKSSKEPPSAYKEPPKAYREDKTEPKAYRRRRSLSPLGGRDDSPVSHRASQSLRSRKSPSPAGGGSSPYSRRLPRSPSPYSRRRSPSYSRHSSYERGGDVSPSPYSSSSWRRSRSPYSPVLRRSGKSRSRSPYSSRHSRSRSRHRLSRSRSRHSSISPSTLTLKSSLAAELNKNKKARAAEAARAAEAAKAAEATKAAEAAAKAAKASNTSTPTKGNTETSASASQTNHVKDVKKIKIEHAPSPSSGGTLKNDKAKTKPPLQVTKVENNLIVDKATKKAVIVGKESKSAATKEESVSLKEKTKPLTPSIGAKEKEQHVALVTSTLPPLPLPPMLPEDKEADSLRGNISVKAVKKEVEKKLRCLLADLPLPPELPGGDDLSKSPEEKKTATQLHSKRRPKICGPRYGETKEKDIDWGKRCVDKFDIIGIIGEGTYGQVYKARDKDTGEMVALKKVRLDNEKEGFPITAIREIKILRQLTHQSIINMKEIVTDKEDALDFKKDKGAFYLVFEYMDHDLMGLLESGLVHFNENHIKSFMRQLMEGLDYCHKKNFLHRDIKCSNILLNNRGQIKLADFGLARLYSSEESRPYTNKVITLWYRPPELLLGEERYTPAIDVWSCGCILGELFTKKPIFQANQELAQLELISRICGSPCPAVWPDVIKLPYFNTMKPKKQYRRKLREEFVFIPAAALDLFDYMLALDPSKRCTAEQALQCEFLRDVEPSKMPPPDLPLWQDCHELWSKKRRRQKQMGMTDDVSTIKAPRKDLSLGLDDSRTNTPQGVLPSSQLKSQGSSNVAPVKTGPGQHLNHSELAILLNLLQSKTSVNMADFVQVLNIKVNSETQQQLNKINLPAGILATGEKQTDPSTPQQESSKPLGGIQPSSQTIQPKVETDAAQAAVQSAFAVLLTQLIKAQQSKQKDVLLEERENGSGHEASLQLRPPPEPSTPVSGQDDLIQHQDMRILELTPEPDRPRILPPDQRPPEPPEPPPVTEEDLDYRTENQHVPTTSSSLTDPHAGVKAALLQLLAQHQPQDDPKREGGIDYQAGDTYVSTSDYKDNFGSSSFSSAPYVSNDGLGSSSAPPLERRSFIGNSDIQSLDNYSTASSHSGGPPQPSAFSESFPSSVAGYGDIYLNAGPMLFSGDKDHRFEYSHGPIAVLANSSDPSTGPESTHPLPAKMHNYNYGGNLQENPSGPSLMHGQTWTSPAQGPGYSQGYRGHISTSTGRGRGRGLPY
Sequence (O75909 whole entry partner, species assumed): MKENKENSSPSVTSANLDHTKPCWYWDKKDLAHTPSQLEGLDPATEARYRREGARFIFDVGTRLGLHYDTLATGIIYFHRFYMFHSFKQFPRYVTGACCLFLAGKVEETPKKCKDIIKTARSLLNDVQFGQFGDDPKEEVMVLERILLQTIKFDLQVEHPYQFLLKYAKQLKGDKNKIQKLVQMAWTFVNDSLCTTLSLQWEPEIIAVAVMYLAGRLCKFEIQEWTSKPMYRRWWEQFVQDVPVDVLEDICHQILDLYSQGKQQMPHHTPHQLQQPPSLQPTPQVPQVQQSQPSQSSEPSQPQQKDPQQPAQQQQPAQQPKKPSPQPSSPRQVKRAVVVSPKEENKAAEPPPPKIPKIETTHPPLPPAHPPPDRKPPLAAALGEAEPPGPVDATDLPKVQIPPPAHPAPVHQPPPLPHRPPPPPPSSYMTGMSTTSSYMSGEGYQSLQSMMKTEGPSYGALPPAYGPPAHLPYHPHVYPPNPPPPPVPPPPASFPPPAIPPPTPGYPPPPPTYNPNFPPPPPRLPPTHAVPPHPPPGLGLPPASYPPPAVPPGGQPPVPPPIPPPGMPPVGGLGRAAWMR
Measurement Type: IC50 (nM)
Supply the numeric figure in nM, leaving out any unit text.

// solved cases for IC50 follow
CC(C(=O)Nc1cc(C2CC2)[nH]n1)c1ccc(-c2ccc(CNC(=O)/C=C/CN3CCOCC3)cc2)cc1 (single isomer, unassigned) [Compound 16]    212
C=CC(=O)NCc1ccc(C(C)C(=O)Nc2cc(C3CC3)[nH]n2)cc1 (racemic)    280
C=CC(=O)NCc1ccc(-c2ccc(C(C)C(=O)Nc3cc(C4CC4)[nH]n3)cc2)cc1 (racemic) [Compound 9]    16.9

Please examine the following record next.
# IC50 of C=CC(=O)Nc1ccc(-c2ccc(C(C)C(=O)Nc3cc(C4CC4)[nH]n3)cc2)cc1 (racemic) = 24

====

biological target: CDK7 (Homo sapiens, UniProt P50613)
Sequence (P50613 whole entry, species assumed): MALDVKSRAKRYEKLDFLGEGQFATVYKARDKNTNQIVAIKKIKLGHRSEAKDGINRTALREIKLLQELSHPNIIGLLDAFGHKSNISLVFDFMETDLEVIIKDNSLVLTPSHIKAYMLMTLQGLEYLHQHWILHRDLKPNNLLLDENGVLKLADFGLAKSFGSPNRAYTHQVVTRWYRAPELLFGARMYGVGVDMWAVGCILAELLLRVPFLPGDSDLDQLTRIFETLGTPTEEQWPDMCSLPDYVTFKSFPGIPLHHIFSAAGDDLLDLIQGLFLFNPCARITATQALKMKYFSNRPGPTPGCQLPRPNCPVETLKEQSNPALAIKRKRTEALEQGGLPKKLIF
Sequence (P51946 whole entry partner, species assumed): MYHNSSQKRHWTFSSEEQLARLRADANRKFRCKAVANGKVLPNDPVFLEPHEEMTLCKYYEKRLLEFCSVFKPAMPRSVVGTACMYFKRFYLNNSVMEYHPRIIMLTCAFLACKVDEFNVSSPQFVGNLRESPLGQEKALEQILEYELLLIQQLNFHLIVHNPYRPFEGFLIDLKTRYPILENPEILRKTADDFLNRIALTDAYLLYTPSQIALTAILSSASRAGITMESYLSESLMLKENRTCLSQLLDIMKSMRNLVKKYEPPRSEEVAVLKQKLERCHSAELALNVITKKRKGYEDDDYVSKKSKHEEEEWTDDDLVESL
Sequence (P51948 whole entry partner, species assumed): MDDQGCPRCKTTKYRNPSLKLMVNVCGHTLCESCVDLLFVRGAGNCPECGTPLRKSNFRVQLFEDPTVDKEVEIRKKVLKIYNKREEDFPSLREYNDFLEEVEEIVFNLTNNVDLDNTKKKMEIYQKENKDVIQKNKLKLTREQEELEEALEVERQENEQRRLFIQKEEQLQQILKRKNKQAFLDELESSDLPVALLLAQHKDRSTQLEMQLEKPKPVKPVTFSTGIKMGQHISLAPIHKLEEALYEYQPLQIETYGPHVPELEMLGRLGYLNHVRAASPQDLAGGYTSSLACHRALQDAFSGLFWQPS
# Lookup of reported IC50 keyed by entry
Supply the numeric figure in µM, leaving out any unit text.

// solved cases for IC50 follow
C=CC(=O)NCc1ccc(-c2ccc(C(C)C(=O)Nc3cc(C4CC4)[nH]n3)cc2)nc1 (stereo not drawn)    5.3
C=CC(=O)NCc1ccc(-c2ccc(C(C)C(=O)Nc3cc(C4CC4)[nH]n3)cc2)cc1 (racemic)    5.45

Case C=CC(=O)Nc1ccc(-c2ccc(C(C)C(=O)Nc3cc(C4CC4)[nH]n3)cc2)cc1 (racemic) , CDK7 (Homo sapiens, UniProt P50613), IC50 recorded as 11.4

====

biological target: CDK13 (Homo sapiens, UniProt Q14004)
Label yes when IC50 is strictly below 0.05 µM; at or above that, label no.

CC(C(=O)Nc1cc(C2CC2)[nH]n1)c1ccc(-c2ccc(NC(=O)/C=C/CN3CCOCC3)nc2)cc1 (single isomer, unassigned) [Compound 7]    yes
C=CC(=O)NCc1ccc(-c2ccc([C@H](C)C(=O)Nc3cc(C4CC4)[nH]n3)cc2)cn1 [Compound 8]    yes

input: Take the compound CC(C(=O)Nc1cc(C2CC2)[nH]n1)c1ccc(-c2ccc(CNC(=O)/C=C/CN3CCOCC3)nc2)cc1 (single isomer, unassigned) [Compound 13] and say whether its IC50 is less than 0.05 µM.
output: no

input: Take the compound CC(C(=O)Nc1cc(C2CC2)[nH]n1)c1ccc(-c2ccc(CNC(=O)/C=C/CN3CCOCC3)nc2)cc1 (single isomer, unassigned) [Compound 14] and say whether its IC50 is less than 0.05 µM.
output: yes

input: Take the compound C=CC(=O)NCc1ccc(-c2ccc(C(C)C(=O)Nc3cc(C4CC4)[nH]n3)cc2)cc1 (single isomer, unassigned) [Compound 11] and say whether its IC50 is less than 0.05 µM.
output: no

input: Take the compound CC(C(=O)Nc1cc(C2CC2)[nH]n1)c1ccc(-c2ccc(CNC(=O)/C=C/CN3CCOCC3)cc2)cc1 (single isomer, unassigned) [Compound 17] and say whether its IC50 is less than 0.05 µM.
output: no

====

# Lookup of reported pIC50 keyed by entry
biological target: CDK7 (Homo sapiens)
pIC50: −log10 of the molar value.

CC(C(=O)Nc1cc(C2CC2)[nH]n1)c1ccc(-c2ccc(CNC(=O)/C=C/CN3CCOCC3)nc2)cc1 (single isomer, unassigned)    < 5.00

Case C=CC(=O)NCc1ccc(C(C)C(=O)Nc2cc(C3CC3)[nH]n2)cc1 (racemic) , CDK7 (Homo sapiens), pIC50 recorded as < 5.00

Case CC(C(=O)Nc1cc(C2CC2)[nH]n1)c1ccc(-c2ccc(CNC(=O)/C=C/CN3CCOCC3)cc2)cc1 (single isomer, unassigned) , CDK7 (Homo sapiens), pIC50 recorded as < 5.00
